Test: HepG2 cytotoxicity assay
Assay type: cell-based
Details: human, cytotoxicity (IC50 in nM) HepG2, HepG2 cells
reported-endpoint: IC50 (nM)
// note: answer is a bare numeric in nM

Ask: Give the measured IC50 of OC(c1cc(C(F)(F)F)nc2c(C(F)(F)F)cccc12)C1CCCCN1 (stereo not shown) .
Result: 21800

---

Tested on: P. falciparum chloroquine-resistant (CQR) 7G8 strain
Test: microbe, parasite or virus in culture
Format: cell-based
Conditions: Plasmodium falciparum, 7G8, read-out: antimalarial activity (IC50 in nM) 7G8
Each item that follows carries a reported IC50.

As a guide, the following entries are already answered.
compound	target-desc	IC50
c1c[nH]c(CCCNCCNC23CC4CC(CC(C4)C2)C3)c1 [Compound 196]	P. falciparum chloroquine-resistant (CQR) 7G8 strain	> 2500 nM
c1c[nH]c(CNCCNC23CC4CC(CC(C4)C2)C3)c1 [Compound 191]	P. falciparum chloroquine-resistant (CQR) 7G8 strain	> 2500 nM
CCCCCCCCCCCC1=N/C(=C\c2[nH]c(-c3ccc[nH]3)cc2OC)C=C1 [Compound 1a, undecylprodiginine, reference compound]	P. falciparum chloroquine-resistant (CQR) 7G8 strain	7 nM
CCN(CC)CCCC(C)Nc1ccnc2cc(Cl)ccc12 (stereo not drawn) [CQ, chloroquine]	P. falciparum chloroquine-resistant (CQR) 7G8 strain	130 nM
COC1=CC(c2cccn2C)=NC1=Cc1c(Cc2ccc(Cl)cc2)cc(Cc2ccc(Cl)cc2)n1C [Compound 87]	P. falciparum chloroquine-resistant (CQR) 7G8 strain	> 2500 nM

Could you now consider this next compound?
Ask: Consider the compound shown here: O=C(CNC(=O)c1ccc[nH]1)NC12CC3CC(CC(C3)C1)C2 [Compound 190] What is its recorded IC50?
Result: > 2500 nM

Data origin, for the record: paper PMC11177801
